- System: Escherichia coli TOP10
- METHOD_DESCRIPTION: shrunken log2 fold change of peptide-encoding DNA abundance (4.5 h post-induction vs induction); higher = less antimicrobial activity (less host growth inhibition)
- CONDITION_DESCRIPTION: time post-induction: 4.5 h; library: site-saturation at positions 5, 18, 19, 20
QUANTITY_KIND: shrunken log2 fold change
Form: value (number only, do not type unit).

Field request: shrunken log2 fold change | item: `RRIRPRPPRLPRPRPRPNLTPRP`
0.0262

Field request: shrunken log2 fold change | item: `RRIRSRPPRLPRPRPRPSELPRP`
-0.215

Field request: shrunken log2 fold change | item: `RRIRGRPPRLPRPRPRPISFPRP`
0.0122

Field request: shrunken log2 fold change | item: `RRIRNRPPRLPRPRPRPRMCPRP`
0.138

Field request: shrunken log2 fold change | item: `RRIRGRPPRLPRPRPRPRCLPRP`
0.706

Field request: shrunken log2 fold change | item: `RRIRTRPPRLPRPRPRPGSMPRP`
-0.199

Field request: shrunken log2 fold change | item: `RRIRGRPPRLPRPRPRPKDKPRP`
0.558

###

- System: Escherichia coli TOP10
- METHOD_DESCRIPTION: shrunken log2 fold change of peptide-encoding DNA abundance (4.5 h post-induction vs induction); higher = less antimicrobial activity (less host growth inhibition)
- CONDITION_DESCRIPTION: time post-induction: 4.5 h; library: site-saturation at positions 5, 18, 19, 20
QUANTITY_KIND: shrunken log2 fold change
Form: value (number only, do not type unit).

Field request: shrunken log2 fold change | item: `RRIRPRPPRLPRPRPRPVWGPRP`
0.0591

Field request: shrunken log2 fold change | item: `RRIRGRPPRLPRPRPRPCWVPRP`
-0.00887

Field request: shrunken log2 fold change | item: `RRIRDRPPRLPRPRPRPAESPRP`
-0.0371

Field request: shrunken log2 fold change | item: `RRIRPRPPRLPRPRPRPAGYPRP`
-0.189

Field request: shrunken log2 fold change | item: `RRIRSRPPRLPRPRPRPQVIPRP`
0.00733

Field request: shrunken log2 fold change | item: `RRIRWRPPRLPRPRPRPKYAPRP`
-0.0417

Field request: shrunken log2 fold change | item: `RRIRRRPPRLPRPRPRPRPMPRP`
0.76

Field request: shrunken log2 fold change | item: `RRIRQRPPRLPRPRPRPYIKPRP`
-1.38

Field request: shrunken log2 fold change | item: `RRIRWRPPRLPRPRPRPVACPRP`
-0.052

Field request: shrunken log2 fold change | item: `RRIRPRPPRLPRPRPRPMMLPRP`
-0.143

Field request: shrunken log2 fold change | item: `RRIRMRPPRLPRPRPRPYAPPRP`
-0.24

Field request: shrunken log2 fold change | item: `RRIRERPPRLPRPRPRPHETPRP`
-0.0135

Field request: shrunken log2 fold change | item: `RRIRNRPPRLPRPRPRPMMYPRP`
0.025

Field request: shrunken log2 fold change | item: `RRIRRRPPRLPRPRPRPEMLPRP`
0.0638

Field request: shrunken log2 fold change | item: `RRIRGRPPRLPRPRPRPNDQPRP`
0.265

Field request: shrunken log2 fold change | item: `RRIRWRPPRLPRPRPRPHENPRP`
0.0568

Field request: shrunken log2 fold change | item: `RRIRTRPPRLPRPRPRPCMHPRP`
-0.0639

Field request: shrunken log2 fold change | item: `RRIRVRPPRLPRPRPRPWDTPRP`
0.00866

Field request: shrunken log2 fold change | item: `RRIRKRPPRLPRPRPRPACWPRP`
0.96

Field request: shrunken log2 fold change | item: `RRIRSRPPRLPRPRPRPANYPRP`
-0.43

Field request: shrunken log2 fold change | item: `RRIRGRPPRLPRPRPRPKQYPRP`
0.234

Field request: shrunken log2 fold change | item: `RRIRYRPPRLPRPRPRPTPQPRP`
0.161

Field request: shrunken log2 fold change | item: `RRIRRRPPRLPRPRPRPQLRPRP`
0.213

Field request: shrunken log2 fold change | item: `RRIRSRPPRLPRPRPRPRQLPRP`
0.0648

Field request: shrunken log2 fold change | item: `RRIRHRPPRLPRPRPRPMHVPRP`
-0.0591

###

Please respond with reported shrunken log2 fold change for every item in the list.
- Tested on: Escherichia coli TOP10
- METHOD_DESCRIPTION: shrunken log2 fold change of peptide-encoding DNA abundance (4.5 h post-induction vs induction); higher = less antimicrobial activity (less host growth inhibition)
- CONDITION_DESCRIPTION: time post-induction: 4.5 h; library: site-saturation at positions 5, 18, 19, 20
Form: value (number only, do not type unit).

Field request: shrunken log2 fold change | item: `RRIRGRPPRLPRPRPRPGGGPRP`
1.33

Field request: shrunken log2 fold change | item: `RRIRLRPPRLPRPRPRPHCSPRP`
-0.747

Field request: shrunken log2 fold change | item: `RRIRARPPRLPRPRPRPQHFPRP`
3.55

Field request: shrunken log2 fold change | item: `RRIRNRPPRLPRPRPRPQPTPRP`
0.0158

Field request: shrunken log2 fold change | item: `RRIRMRPPRLPRPRPRPCMIPRP`
-0.0212

###

Please respond with reported shrunken log2 fold change for every item in the list.
- Test system: Escherichia coli TOP10
- METHOD_DESCRIPTION: shrunken log2 fold change of peptide-encoding DNA abundance (4.5 h post-induction vs induction); higher = less antimicrobial activity (less host growth inhibition)
- CONDITION_DESCRIPTION: time post-induction: 4.5 h; library: site-saturation at positions 5, 18, 19, 20
Form: value (number only, do not type unit).

Field request: shrunken log2 fold change | item: `RRIRPRPPRLPRPRPRPECPPRP`
0.353

Field request: shrunken log2 fold change | item: `RRIRVRPPRLPRPRPRPSQNPRP`
-0.242

Field request: shrunken log2 fold change | item: `RRIRSRPPRLPRPRPRPFELPRP`
0.0413

###

- System: Escherichia coli TOP10
- METHOD_DESCRIPTION: shrunken log2 fold change of peptide-encoding DNA abundance (4.5 h post-induction vs induction); higher = less antimicrobial activity (less host growth inhibition)
- CONDITION_DESCRIPTION: time post-induction: 4.5 h; library: site-saturation at positions 5, 18, 19, 20
QUANTITY_KIND: shrunken log2 fold change
Form: value (number only, do not type unit).

Field request: shrunken log2 fold change | item: `RRIRYRPPRLPRPRPRPQHMPRP`
-0.629

Field request: shrunken log2 fold change | item: `RRIRQRPPRLPRPRPRPICYPRP`
0.0933

Field request: shrunken log2 fold change | item: `RRIRYRPPRLPRPRPRPYHCPRP`
-0.00776

Field request: shrunken log2 fold change | item: `RRIRFRPPRLPRPRPRPKPYPRP`
-0.109

Field request: shrunken log2 fold change | item: `RRIRIRPPRLPRPRPRPNWTPRP`
0.117

Field request: shrunken log2 fold change | item: `RRIRRRPPRLPRPRPRPDSKPRP`
-0.0649

Field request: shrunken log2 fold change | item: `RRIRIRPPRLPRPRPRPSIWPRP`
-0.0823

###

- Test system: Escherichia coli TOP10;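 also: peptides expressed intracellularly from a pBAD plasmid library in pooled LB shake-flask culture, induced with 0.3% L-arabinose, DNA abundance read by NGS, three biological replicates, DESeq2 with apeglm shrinkage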
- METHOD_DESCRIPTION: shrunken log2 fold change of peptide-encoding DNA abundance (4.5 h post-induction vs induction); higher = less antimicrobial activity (less host growth inhibition)
- CONDITION_DESCRIPTION: time post-induction: 4.5 h; library: site-saturation at positions 5, 18, 19, 20
QUANTITY_KIND: shrunken log2 fold change
Form: value (number only, do not type unit).

Field request: shrunken log2 fold change | item: `RRIRMRPPRLPRPRPRPWRYPRP`
0.166

Field request: shrunken log2 fold change | item: `RRIRIRPPRLPRPRPRPPDSPRP`
-0.0582

Field request: shrunken log2 fold change | item: `RRIRKRPPRLPRPRPRPGVHPRP`
0.195

Field request: shrunken log2 fold change | item: `RRIRNRPPRLPRPRPRPNRNPRP`
-0.91

Field request: shrunken log2 fold change | item: `RRIRARPPRLPRPRPRPSERPRP`
-0.132

Field request: shrunken log2 fold change | item: `RRIRVRPPRLPRPRPRPKAYPRP`
0.0199

Field request: shrunken log2 fold change | item: `RRIRFRPPRLPRPRPRPYKPPRP`
0.108

Field request: shrunken log2 fold change | item: `RRIRFRPPRLPRPRPRPEEPPRP`
0.248

Field request: shrunken log2 fold change | item: `RRIRVRPPRLPRPRPRPEGSPRP`
0.464

Field request: shrunken log2 fold change | item: `RRIRGRPPRLPRPRPRPSARPRP`
1.1

Field request: shrunken log2 fold change | item: `RRIRQRPPRLPRPRPRPCKLPRP`
-0.167

Field request: shrunken log2 fold change | item: `RRIRDRPPRLPRPRPRPYYCPRP`
0.0391

Field request: shrunken log2 fold change | item: `RRIRGRPPRLPRPRPRPQQMPRP`
0.287

Field request: shrunken log2 fold change | item: `RRIRWRPPRLPRPRPRPVYVPRP`
-0.231

Field request: shrunken log2 fold change | item: `RRIRHRPPRLPRPRPRPHIRPRP`
-0.0193

Field request: shrunken log2 fold change | item: `RRIRVRPPRLPRPRPRPRTAPRP`
0.287

Field request: shrunken log2 fold change | item: `RRIRSRPPRLPRPRPRPFPGPRP`
0.0161

Field request: shrunken log2 fold change | item: `RRIRDRPPRLPRPRPRPRRNPRP`
0.225

Field request: shrunken log2 fold change | item: `RRIRRRPPRLPRPRPRPQIEPRP`
0.694

Field request: shrunken log2 fold change | item: `RRIRPRPPRLPRPRPRPPHMPRP`
0.214

Field request: shrunken log2 fold change | item: `RRIRNRPPRLPRPRPRPQFAPRP`
-0.0842

Field request: shrunken log2 fold change | item: `RRIRYRPPRLPRPRPRPLKKPRP`
-0.339

Field request: shrunken log2 fold change | item: `RRIRYRPPRLPRPRPRPIMNPRP`
-0.123

Field request: shrunken log2 fold change | item: `RRIRWRPPRLPRPRPRPKWSPRP`
0.272

Field request: shrunken log2 fold change | item: `RRIRQRPPRLPRPRPRPYFPPRP`
-0.283

Field request: shrunken log2 fold change | item: `RRIRLRPPRLPRPRPRPHAPPRP`
0.304

Field request: shrunken log2 fold change | item: `RRIRIRPPRLPRPRPRPSFCPRP`
-0.656
